assay name: Plasma concentrations in mice following oral administration
test parameters: ICR, mouse, po, 10 mg/kg
concentration at 4 h values by entry
measure: concentration at 4 h

> print(dat)
                                   compound    measured
1  Cc1c(NS(=O)(=O)c2c(Cl)cc(-c3ccc4oc5c(c4c3)CNCC5)cc2Cl)c(CC#N)nn1C [Compound B18]  1670 ng/mL
2  Cc1c(NS(=O)(=O)c2c(Cl)cc(-c3ccc4oc5c(c4c3)CNCC5)cc2Cl)c(CC(C)C)nn1C [Compound 45]  3260 ng/mL
3  Cc1c(NS(=O)(=O)c2c(Cl)cc(-c3ccc4sc5c(c4c3)CCNC5)cc2Cl)c(CC(C)C)nn1C [Compound 54]  2310 ng/mL
4  Cc1c(NS(=O)(=O)c2c(Cl)cc(-c3ccc4sc5c(c4c3)CNCC5)cc2Cl)c(CC(F)(F)F)nn1C [Compound 17]  4080 ng/mL

====

Each record here notes measured concentration at 4 h.
assay name: Plasma concentrations in mice following oral administration
test parameters: ICR, mouse, po, 10 mg/kg
measure: concentration at 4 h (ng/mL)

> print(dat)
                                test.smiles  measured
1  CCc1nn(C)c(C)c1NS(=O)(=O)c1c(Cl)cc(-c2ccc3sc4c(c3c2)CNCC4)cc1Cl      1960
2  Cc1nn(C)c(C)c1NS(=O)(=O)c1c(Cl)cc(-c2ccc3sc4c(c3c2)CNCC4)cc1Cl      1350
3  Cc1c(NS(=O)(=O)c2ccc(-c3ccc4sc5c(c4c3)CNCC5)cc2Cl)c(CCF)nn1C      1400
4  Cc1c(NS(=O)(=O)c2ccc(-c3ccc4oc5c(c4c3)CNCC5)cc2)c(CC(F)F)nn1C       795

====

assay name: Plasma concentrations in mice following oral administration
test parameters: ICR, mouse, po, 10 mg/kg
measure: concentration at 4 h (ng/mL)

> print(dat)
                                test.smiles               measure  measured
1  Cc1c(NS(=O)(=O)c2ccc(-c3ccc4oc5c(c4c3)CNCC5)cc2)c(CCF)nn1C  concentration at 4 h      1020
2  Cc1c(NS(=O)(=O)c2ccc(-c3ccc4oc5c(c4c3)CNCC5)cc2Cl)c(CC(F)(F)F)nn1C  concentration at 4 h      8530
3  Cc1c(NS(=O)(=O)c2ccc(-c3ccc4sc5c(c4c3)CNCC5)cc2Cl)c(CC(F)F)nn1C  concentration at 4 h       846
4  Cc1c(NS(=O)(=O)c2c(Cl)cc(-c3ccc4sc5c(c4c3)CNCC5)cc2Cl)c(CCF)nn1C  concentration at 4 h      1710
5  Cc1c(NS(=O)(=O)c2c(Cl)cc(-c3ccc4sc5c(c4c3)CNCC5)cc2Cl)c(CC(C)C)nn1C  concentration at 4 h      1980
6  Cc1c(NS(=O)(=O)c2c(Cl)cc(-c3ccc4oc5c(c4c3)CNCC5)cc2Cl)c(CCF)nn1C  concentration at 4 h      3800
7  Cc1c(NS(=O)(=O)c2ccc(-c3ccc4sc5c(c4c3)CCNC5)cc2)c(CCF)nn1C  concentration at 4 h      2180
8  Cc1c(NS(=O)(=O)c2c(Cl)cc(-c3ccc4oc5c(c4c3)CNCC5)cc2Cl)c(CC2CC2)nn1C  concentration at 4 h      3380

====

assay name: Plasma concentrations in mice following oral administration
test parameters: ICR, mouse, po, 10 mg/kg
Measured concentration at 8 h by item
measure: concentration at 8 h (ng/mL)

> print(dat)
                                test.smiles  measured
1  Cc1c(NS(=O)(=O)c2c(Cl)cc(-c3ccc4sc5c(c4c3)CNCC5)cc2Cl)c(CCF)nn1C      1570
2  Cc1c(NS(=O)(=O)c2c(Cl)cc(-c3ccc4oc5c(c4c3)CNCC5)cc2Cl)c(CC2CC2)nn1C      2150
3  Cc1c(NS(=O)(=O)c2ccc(-c3ccc4oc5c(c4c3)CNCC5)cc2)c(CCF)nn1C       399
4  Cc1c(NS(=O)(=O)c2c(Cl)cc(-c3ccc4oc5c(c4c3)CNCC5)cc2Cl)c(CCF)nn1C      3730

====

measurement target: NMT1 enzyme (Homo sapiens)
Sequence (P30419 whole entry): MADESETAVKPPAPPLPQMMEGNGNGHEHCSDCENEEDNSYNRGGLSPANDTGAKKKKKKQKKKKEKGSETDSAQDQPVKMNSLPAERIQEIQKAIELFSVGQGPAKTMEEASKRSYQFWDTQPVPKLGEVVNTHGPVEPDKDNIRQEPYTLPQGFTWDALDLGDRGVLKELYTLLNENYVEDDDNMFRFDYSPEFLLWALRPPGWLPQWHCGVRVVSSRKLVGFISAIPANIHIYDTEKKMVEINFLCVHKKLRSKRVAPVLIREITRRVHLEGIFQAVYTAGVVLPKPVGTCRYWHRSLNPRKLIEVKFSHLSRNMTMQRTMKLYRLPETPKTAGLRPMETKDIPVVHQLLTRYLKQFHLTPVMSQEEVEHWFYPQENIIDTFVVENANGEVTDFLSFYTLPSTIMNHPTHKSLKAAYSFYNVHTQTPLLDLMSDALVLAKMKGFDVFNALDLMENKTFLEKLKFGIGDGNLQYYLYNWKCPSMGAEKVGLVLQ
assay name: Inhibitory activity on NMT1 enzyme catalysis (fluorescence intensity assay)
Assay type: biochemical
test parameters: 6 nM NMT1 enzyme, 1.25 µM myristoyl-CoA, 20 µM HSPP60 SRC peptide, 45 minutes at 25 °C; read-out: NMT1 (IC50)
pIC50: −log10 of the molar value.
Documented pIC50 across a set of compounds
measure: pIC50

> print(dat)
                                 test.smiles          measurement.target  measure  measured
 1  Cc1c(NS(=O)(=O)c2ccc(-c3ccc4sc5c(c4c3)CCNC5)cc2)c(CC(F)F)nn1C  NMT1 enzyme (Homo sapiens)    pIC50      8.44
 2  CCc1nn(C)c(C)c1NS(=O)(=O)c1c(Cl)cc(-c2ccc3sc4c(c3c2)CCNC4)cc1Cl  NMT1 enzyme (Homo sapiens)    pIC50      8.40
 3  CCc1nn(C)c(C)c1NS(=O)(=O)c1ccc(-c2ccc3sc4c(c3c2)CNCC4)cc1  NMT1 enzyme (Homo sapiens)    pIC50      8.62
 4  CCc1nn(C)c(C)c1NS(=O)(=O)c1c(Cl)cc(N2CCc3sc4c(c3C2)CNCC4)cc1Cl  NMT1 enzyme (Homo sapiens)    pIC50      8.53
 5  Cc1nn(C)c(C)c1NS(=O)(=O)c1c(Cl)cc(-c2ccc3oc4c(c3c2)CNCC4)cc1Cl  NMT1 enzyme (Homo sapiens)    pIC50      8.38
 6  Cc1c(NS(=O)(=O)c2c(Cl)cc(-c3ccc4oc5c(c4c3)CNCC5)cc2Cl)c(CC#N)nn1C  NMT1 enzyme (Homo sapiens)    pIC50      8.31
 7  Cc1c(NS(=O)(=O)c2c(Cl)cc(-c3ccc4oc5c(c4c3)CNCC5)cc2Cl)c(CC2CC2)nn1C  NMT1 enzyme (Homo sapiens)    pIC50      8.54
 8  Cc1c(NS(=O)(=O)c2c(Cl)cc(-c3ccc4sc5c(c4c3)CNCC5)cc2Cl)c(CC(F)F)nn1C  NMT1 enzyme (Homo sapiens)    pIC50      8.75
 9  CCc1nn(C)c(C)c1NS(=O)(=O)c1ccc(-c2ccc3oc4c(c3c2)CNCC4)cc1Cl  NMT1 enzyme (Homo sapiens)    pIC50      8.60
10  Cc1c(NS(=O)(=O)c2c(Cl)cc(-c3ccc4oc5c(c4c3)CNCC5)cc2Cl)c(CC(C)C)nn1C  NMT1 enzyme (Homo sapiens)    pIC50      8.27
11  Cc1c(NS(=O)(=O)c2c(Cl)cc(N3CCc4sc5c(c4C3)CNCC5)cc2Cl)c(CC(C)C)nn1C  NMT1 enzyme (Homo sapiens)    pIC50      8.47
12  Cc1c(NS(=O)(=O)c2ccc(-c3ccc4oc5c(c4c3)CNCC5)cc2Cl)c(CC(F)F)nn1C  NMT1 enzyme (Homo sapiens)    pIC50      8.28
13  Cc1nn(C)c(C)c1NS(=O)(=O)c1ccc(-c2ccc3oc4c(c3c2)CNCC4)cc1Cl  NMT1 enzyme (Homo sapiens)    pIC50      8.51
14  Cc1nn(C)c(C)c1NS(=O)(=O)c1c(Cl)cc(-c2ccc3sc4c(c3c2)CCNC4)cc1Cl  NMT1 enzyme (Homo sapiens)    pIC50      8.38
15  Cc1c(NS(=O)(=O)c2ccc(-c3ccc4oc5c(c4c3)CNCC5)cc2)c(CCF)nn1C  NMT1 enzyme (Homo sapiens)    pIC50      8.40
16  Cc1c(NS(=O)(=O)c2ccc(-c3ccc4sc5c(c4c3)CNCC5)cc2Cl)c(CC#N)nn1C  NMT1 enzyme (Homo sapiens)    pIC50      8.51
17  Cc1c(NS(=O)(=O)c2c(Cl)cc(-c3ccc4oc5c(c4c3)CNCC5)cc2Cl)c(CC(F)(F)F)nn1C  NMT1 enzyme (Homo sapiens)    pIC50      8.30
18  Cc1c(NS(=O)(=O)c2c(Cl)cc(N3CCc4oc5c(c4C3)CNCC5)cc2Cl)c(CC(F)(F)F)nn1C  NMT1 enzyme (Homo sapiens)    pIC50      8.56
19  Cc1c(NS(=O)(=O)c2c(Cl)cc(N3CCc4sc5c(c4C3)CNCC5)cc2Cl)c(CC(F)F)nn1C  NMT1 enzyme (Homo sapiens)    pIC50      8.53
20  Cc1c(NS(=O)(=O)c2c(Cl)cc(N3CCn4nc5c(c4C3)CNCC5)cc2Cl)c(CC(C)C)nn1C  NMT1 enzyme (Homo sapiens)    pIC50      8.43
21  Cc1c(NS(=O)(=O)c2c(Cl)cc(-c3ccn4nc5c(c4c3)CNCC5)cc2Cl)c(CC(C)C)nn1C  NMT1 enzyme (Homo sapiens)    pIC50      8.38
22  CCc1nn(C)c(C)c1NS(=O)(=O)c1c(Cl)cc(-c2ccc3sc4c(c3c2)CNCC4)cc1Cl  NMT1 enzyme (Homo sapiens)    pIC50      8.51
